Test system: SETVI
Assay details: Pre-emergence herbicidal action against SETVI
Assay type: in vivo, Setaria viridis
Particulars: Setaria viridis, 504 h, dosage 20 g/ha
Recorded metric: pest or weed control at 20 g/ha (%)

[[record]]
cpd_smiles = "CCNC(=O)c1c(C(F)(F)F)ccc(C(=O)Nc2nnnn2C)c1Br"
recorded_metric = "pest or weed control at 20 g/ha"
recorded_value = 100

[[record]]
cpd_smiles = "CCn1nnnc1NC(=O)c1ccc(C(F)(F)F)c(C(=O)NC2CC2)c1C1CC1"
recorded_metric = "pest or weed control at 20 g/ha"
recorded_value = 90

[[record]]
cpd_smiles = "CCNC(=O)c1c(I)ccc(C(=O)Nc2nnnn2CC)c1Cl"
recorded_metric = "pest or weed control at 20 g/ha"
recorded_value = 90

[[record]]
cpd_smiles = "CCNC(=O)c1c(C(F)(F)F)ccc(C(=O)Nc2nnnn2C)c1CC"
recorded_metric = "pest or weed control at 20 g/ha"
recorded_value = 80

[[record]]
cpd_smiles = "CNC(=O)c1c(Cl)ccc(C(=O)Nc2nnnn2C)c1Br"
recorded_metric = "pest or weed control at 20 g/ha"
recorded_value = 90

[[record]]
cpd_smiles = "CCNC(=O)c1c(C(F)(F)F)ccc(C(=O)Nc2nnnn2C)c1C"
recorded_metric = "pest or weed control at 20 g/ha"
recorded_value = 80

[[record]]
cpd_smiles = "CCNC(=O)c1c(C(F)(F)F)ccc(C(=O)Nc2nnnn2C)c1OC"
recorded_metric = "pest or weed control at 20 g/ha"
recorded_value = 90

[[record]]
cpd_smiles = "CCNC(=O)c1c(C(F)(F)C(F)(F)F)ccc(C(=O)Nc2nnnn2C)c1Cl"
recorded_metric = "pest or weed control at 20 g/ha"
recorded_value = 80

[[record]]
cpd_smiles = "CC(C)NC(=O)c1c(C(F)F)ccc(C(=O)Nc2nnnn2C)c1Cl"
recorded_metric = "pest or weed control at 20 g/ha"
recorded_value = 80

[[record]]
cpd_smiles = "CCc1c(C(=O)Nc2nnnn2C)ccc(C(F)(F)F)c1C(=O)NC1CC1"
recorded_metric = "pest or weed control at 20 g/ha"
recorded_value = 100


----------
Test system: ALOMY
Assay details: Post-emergence herbicidal action against ALOMY
Assay type: in vivo, Alopecurus myosuroides
Particulars: Alopecurus myosuroides, 504 h, dosage 80 g/ha, visual assessment about 3 weeks after treatment vs untreated controls
Experimental: Seeds of monocotyledonous and dicotyledonous weed and crop plants are laid out in sandy loam soil in wood-fiber pots, covered with soil and cultivated in a greenhouse under good growth conditions. 2 to 3 weeks after sowing, the test plants are treated at the one-leaf stage. […]
Reported pest or weed control at 80 g/ha by item:
Recorded metric: pest or weed control at 80 g/ha (%)

[[record]]
cpd_smiles = "CCCn1nnnc1NC(=O)c1ccc(C(F)(F)F)c(C(=O)NC)c1Cl"
u = "%"
recorded_value = 100

[[record]]
cpd_smiles = "CNC(=O)c1c(C(F)(F)F)ccc(C(=O)Nc2nnnn2C)c1SC"
u = "%"
recorded_value = 90

[[record]]
cpd_smiles = "CCn1nnnc1NC(=O)c1ccc(C(F)F)c(C(=O)NC)c1Cl"
u = "%"
recorded_value = 90

[[record]]
cpd_smiles = "CCn1nnnc1NC(=O)c1ccc(C(F)(F)F)c(C(=O)NC)c1Cl"
u = "%"
recorded_value = 100

[[record]]
cpd_smiles = "CCNC(=O)c1c(C(F)F)ccc(C(=O)Nc2nnnn2CC)c1Cl"
u = "%"
recorded_value = 90

[[record]]
cpd_smiles = "CCNC(=O)c1c(C(F)(F)F)ccc(C(=O)Nc2nnnn2CC)c1SC"
u = "%"
recorded_value = 90

